- Tgt: human Src enzyme (Homo sapiens, UniProt P12931)
- Construct: purchased Carna Biosciences, Inc. 08-173
- Sequence (P12931 whole entry): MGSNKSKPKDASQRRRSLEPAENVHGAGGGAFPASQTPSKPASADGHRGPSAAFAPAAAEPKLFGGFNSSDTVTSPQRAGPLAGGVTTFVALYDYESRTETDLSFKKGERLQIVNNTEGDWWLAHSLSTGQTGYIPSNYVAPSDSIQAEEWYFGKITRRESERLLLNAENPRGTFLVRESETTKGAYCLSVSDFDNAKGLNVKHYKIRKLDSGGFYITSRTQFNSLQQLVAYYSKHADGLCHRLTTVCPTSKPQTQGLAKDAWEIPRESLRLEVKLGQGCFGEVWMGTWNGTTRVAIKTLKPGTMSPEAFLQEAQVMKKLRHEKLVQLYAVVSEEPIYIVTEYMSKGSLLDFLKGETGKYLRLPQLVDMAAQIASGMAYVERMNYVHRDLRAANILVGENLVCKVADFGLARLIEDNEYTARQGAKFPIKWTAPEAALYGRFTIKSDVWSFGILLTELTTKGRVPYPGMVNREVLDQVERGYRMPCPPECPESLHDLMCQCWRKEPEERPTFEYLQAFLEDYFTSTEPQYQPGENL
- Assay Notes: Src enzyme inhibitory activity (time-resolved fluorometry, biotinylated peptide phosphorylation)
- Type: biochemical
- Condition Description: read-out: SRC_IC50
Quantity Measured: pIC50
// returns pIC50 (minus log10 of molar concentration), number only

Ask: Looking for the measured pIC50 of "COc1ccccc1S(=O)(=O)Nc1cc2[nH]c(C(=O)c3cnn(-c4cnc(Oc5c(F)cccc5F)cc4C)c3N)cc2cc1OCC(F)F" , can you help?
Reply: 6.14

Ask: Record request: pIC50 value, item "Cc1cc(Oc2c(F)cccc2F)ncc1-n1ncc(C(=O)c2cc3cc(OC4CCN(C(C)C)CC4)c(-c4cccs4)cc3[nH]2)c1N"
Reply: 7.40

Ask: Requested field: pIC50. Item: "Cc1cc(Oc2ccccc2F)ccc1-n1ncc(C(=O)c2cc3cc(OCC(F)F)c(C4CCN(C(=O)OC(C)(C)C)CC4)cc3[nH]2)c1N"
Reply: 7.82

Ask: So what's the measured pIC50 for this one? "Cc1cc(-n2ncc(C(=O)c3cc4cc(OC5CCN(C6CS(=O)(=O)C6)CC5)c(Br)cc4[nH]3)c2N)ccc1Oc1ccccc1F"
Reply: 6.25

Ask: Can you share its pIC50? I mean this molecule: "Cc1cc(-n2ncc(C(=O)c3cc4cc(OCC(F)F)c(N5CCN(S(C)(=O)=O)CC5)cc4[nH]3)c2N)ccc1Oc1ccccc1F"
Reply: 7.10

Ask: Endpoint output: pIC50 of "Cc1cc2cc(C(=O)c3cnn(-c4cnc(Oc5c(F)cccc5F)cc4C)c3N)[nH]c2cc1NS(=O)(=O)C1CCOCC1" . Value?
Reply: 6.96

Consider the additional molecule presented here.
Ask: Please look up its pIC50: "Nc1c(C(=O)c2cc3cc(F)c(NS(=O)(=O)C4CC4)cc3[nH]2)cnn1-c1c(F)cc(Oc2cccc(F)c2F)cc1F"
Reply: 6.66

From: patent US10479780B2
